- Target: human ACC2 (Homo sapiens, UniProt O00763)
- Construct: made in house; host or cells: insect cells (baculoviral expression system)
- Sequence (O00763 129-2458 limits assumed): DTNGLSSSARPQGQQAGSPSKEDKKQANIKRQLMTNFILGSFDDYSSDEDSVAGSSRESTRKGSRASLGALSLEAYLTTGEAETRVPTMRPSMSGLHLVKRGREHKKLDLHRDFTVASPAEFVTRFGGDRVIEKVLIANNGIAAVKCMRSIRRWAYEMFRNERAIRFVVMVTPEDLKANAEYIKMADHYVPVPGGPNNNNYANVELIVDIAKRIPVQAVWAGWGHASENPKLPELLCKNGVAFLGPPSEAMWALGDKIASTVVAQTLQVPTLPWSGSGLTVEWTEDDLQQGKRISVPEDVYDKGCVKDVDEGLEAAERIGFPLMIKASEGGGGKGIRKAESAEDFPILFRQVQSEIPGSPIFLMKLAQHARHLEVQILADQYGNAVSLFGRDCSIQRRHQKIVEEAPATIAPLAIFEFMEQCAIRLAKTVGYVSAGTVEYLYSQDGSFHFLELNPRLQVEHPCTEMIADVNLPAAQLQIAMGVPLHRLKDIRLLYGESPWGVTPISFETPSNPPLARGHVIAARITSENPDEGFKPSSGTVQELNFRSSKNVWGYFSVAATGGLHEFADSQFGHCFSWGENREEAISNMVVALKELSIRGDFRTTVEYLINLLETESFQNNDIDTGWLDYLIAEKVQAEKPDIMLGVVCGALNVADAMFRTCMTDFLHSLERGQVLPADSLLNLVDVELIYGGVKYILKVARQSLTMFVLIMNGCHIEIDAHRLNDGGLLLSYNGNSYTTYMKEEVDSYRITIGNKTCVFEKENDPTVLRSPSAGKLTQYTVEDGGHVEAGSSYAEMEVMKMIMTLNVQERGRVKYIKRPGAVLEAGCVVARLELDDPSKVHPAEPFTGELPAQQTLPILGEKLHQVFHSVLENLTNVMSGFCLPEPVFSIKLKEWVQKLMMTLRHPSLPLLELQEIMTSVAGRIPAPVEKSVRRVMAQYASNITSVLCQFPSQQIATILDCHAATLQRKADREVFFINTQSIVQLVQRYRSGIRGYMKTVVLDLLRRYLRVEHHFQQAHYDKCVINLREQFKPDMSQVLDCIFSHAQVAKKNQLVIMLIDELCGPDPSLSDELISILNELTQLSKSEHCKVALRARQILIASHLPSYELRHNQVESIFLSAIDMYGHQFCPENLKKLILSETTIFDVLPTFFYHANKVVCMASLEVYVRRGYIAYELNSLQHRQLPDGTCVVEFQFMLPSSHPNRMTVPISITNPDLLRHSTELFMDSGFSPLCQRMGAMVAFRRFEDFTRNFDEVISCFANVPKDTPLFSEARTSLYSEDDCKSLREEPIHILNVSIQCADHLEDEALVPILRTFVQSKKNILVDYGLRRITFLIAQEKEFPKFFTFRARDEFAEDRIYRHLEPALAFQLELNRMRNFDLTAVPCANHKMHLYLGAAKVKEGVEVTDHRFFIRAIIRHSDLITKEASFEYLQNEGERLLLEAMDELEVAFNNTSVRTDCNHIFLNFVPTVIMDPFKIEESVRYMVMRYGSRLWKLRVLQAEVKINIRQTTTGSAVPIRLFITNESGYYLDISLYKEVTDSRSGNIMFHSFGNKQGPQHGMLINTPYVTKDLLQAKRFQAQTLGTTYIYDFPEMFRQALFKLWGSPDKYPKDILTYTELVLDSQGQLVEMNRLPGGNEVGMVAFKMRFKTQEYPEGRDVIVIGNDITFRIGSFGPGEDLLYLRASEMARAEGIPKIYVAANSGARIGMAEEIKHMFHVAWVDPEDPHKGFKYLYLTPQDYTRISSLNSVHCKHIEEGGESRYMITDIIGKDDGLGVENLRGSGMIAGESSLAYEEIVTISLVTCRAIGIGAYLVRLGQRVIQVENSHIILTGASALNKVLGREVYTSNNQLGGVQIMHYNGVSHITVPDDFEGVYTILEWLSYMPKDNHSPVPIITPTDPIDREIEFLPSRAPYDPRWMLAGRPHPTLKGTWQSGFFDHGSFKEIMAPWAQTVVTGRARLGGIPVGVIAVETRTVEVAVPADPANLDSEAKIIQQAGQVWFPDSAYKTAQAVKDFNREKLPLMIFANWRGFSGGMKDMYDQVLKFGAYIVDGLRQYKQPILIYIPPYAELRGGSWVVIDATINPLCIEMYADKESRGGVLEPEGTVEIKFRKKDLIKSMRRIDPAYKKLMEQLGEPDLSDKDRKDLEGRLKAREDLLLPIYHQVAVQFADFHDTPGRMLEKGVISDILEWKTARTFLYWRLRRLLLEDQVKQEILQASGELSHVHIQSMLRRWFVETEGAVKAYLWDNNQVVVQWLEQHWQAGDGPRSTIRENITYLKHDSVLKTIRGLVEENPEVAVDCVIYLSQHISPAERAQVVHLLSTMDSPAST
- Measurement Notes: ACC2 assay, spectrophotometric 384 well assay (NADH-linked, coupled lactate dehydrogenase/pyruvate kinase)
- Type: biochemical
- Assay Context: ACC2 assay, hACC2 construct lacking 128 N-terminal amino acids, 25° C., 340 nm; read-out: IC50
Experimental Readout: IC50 (nM)

a = COc1cc(-c2cnc(N3CCC(c4ccc([C@H](C)NC(C)=O)cc4)CC3)nc2)ccc1C
b = CC(=O)N[C@@H](C)c1ccc(C2CCN(c3ncc(-c4ccccc4CC#N)cn3)CC2)cc1
Param pair: a , b . Output: the one whose IC50 is numerically greater. State your choice using its label. b
